Biological target: EphA2-ephrinA1 binding (Mus musculus, UniProt Q03145)
Construct: we immobilized EphA2-Fc- ectodomain on proper ELISA plates; purchased R&D systems 639-A2 (EphA2-Fc); BT602 (biotinylated ephrinA1-Fc)
Sequence (Q03145 26-538 limits assumed): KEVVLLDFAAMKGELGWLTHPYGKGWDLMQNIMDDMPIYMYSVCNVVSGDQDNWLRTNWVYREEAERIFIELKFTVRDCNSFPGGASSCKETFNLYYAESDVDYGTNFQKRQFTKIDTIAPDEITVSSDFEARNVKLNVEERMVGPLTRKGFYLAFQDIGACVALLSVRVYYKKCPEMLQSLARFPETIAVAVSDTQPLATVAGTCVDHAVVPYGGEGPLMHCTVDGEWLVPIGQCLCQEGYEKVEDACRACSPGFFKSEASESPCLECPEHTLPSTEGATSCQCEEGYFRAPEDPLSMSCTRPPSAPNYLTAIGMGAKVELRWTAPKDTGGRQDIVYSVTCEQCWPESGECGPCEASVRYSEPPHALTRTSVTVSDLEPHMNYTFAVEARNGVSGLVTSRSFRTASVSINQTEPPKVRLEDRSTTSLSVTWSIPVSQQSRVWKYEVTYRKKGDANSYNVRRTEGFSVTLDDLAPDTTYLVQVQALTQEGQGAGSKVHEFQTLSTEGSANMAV
Test: ELISA EphA2-ephrinA1 binding (displacement and saturation)
Conditions: bile acids, repeat of the 200 µM experiment
reportedMetric: decrease of EphA2-ephrinA1 binding

- C[C@H](CCC(=O)O)[C@H]1CC[C@H]2[C@@H]3[C@H](O)C[C@@H]4C[C@H](O)CC[C@]4(C)[C@H]3CC[C@]12C [CDCA, chenodeoxycholic]: did not displaced
- C[C@H](CCC(=O)O)[C@H]1CC[C@H]2[C@@H]3CC[C@@H]4C[C@H](O)CC[C@]4(C)[C@H]3C[C@H](O)[C@]12C [DCA, deoxycholic]: did not displaced
- C[C@H](CCC(=O)O)[C@H]1CC[C@H]2[C@@H]3[C@H](O)C[C@@H]4C[C@H](O)CC[C@]4(C)[C@H]3C[C@H](O)[C@]12C [CA, cholic]: did not displaced
- C[C@H](CCC(=O)O)[C@H]1CC[C@H]2[C@@H]3CC[C@@H]4C[C@H](O)CC[C@]4(C)[C@H]3CC[C@]12C [LCA, lithocholic acid]: 68.2%±4.3
